Reference source for all entries: PubChem BioAssay (NCI)

- Test system: HS 578T breast
- assay: NCI-60 one-dose screen, 48 h (100 = growth as untreated, 0 = no growth, -100 = all killed)
- run-parameters: 10 µM unless noted
The panel holds about 83,000 compounds, 20% with a hit somewhere; the sample as a whole holds those more often.
reported-endpoint: growth (%)
Value expressed in %; do not type the unit.

Some compounds with recorded growth:
compound	growth (%)
CCCCN1C(=O)/C(=c2\sc3n(c2=O)C2C(NN=3)N(CC)C(=O)N2CC)c2cccc(C)c21 (stereo not given)	34.4
N#Cc1c(-c2cccs2)cc(-c2cnccn2)nc1SCC(=O)N/N=C/c1cccs1	58.7
CCCCCCOC(=O)c1cc(-c2ccc(F)cc2)nc2ccccc12	94.1
Cc1ccc(C)c(NC2=C(Cl)C(=O)c3nc(C)ccc3C2=O)c1	-24.8
CC(C)Sc1nc(-c2ccccc2)c(C#N)c(N2CCOCC2)n1	50

growth measured on Cc1ccc2c(n1)C(=O)C(Cl)=C(Nc1cccc(C(F)(F)F)c1)C2=O = 116

growth measured on O=C(/C=C/c1cccc(F)c1)c1cccc(OCCCCOc2cccc(C(=O)/C=C/c3cccc(F)c3)c2)c1 = 99.3

growth measured on CN(C)S(=O)(=O)c1ccc(-c2nc(C(Cl)Cl)nc3cc(-c4ccc(F)cc4)nn23)cc1 = 20.3

growth measured on CC(=O)c1cc(C(=O)N2c3ccccc3Sc3ccccc32)n2c1ccc1ccccc12 = 55.1

growth measured on CCN(CC)c1ccc(/C=N/NC(=O)c2ccc(NS(C)(=O)=O)cc2)cc1 = 65.6

growth measured on Brc1cc(-c2cc(-c3ccc4c(c3)OC=CO4)[nH]n2)cs1 = 90

growth measured on Cc1ncn(-c2ccc(/C=N/Nc3ccnc4cc(Cl)ccc34)cc2)c1C = -16.1

growth measured on Cc1ccc([C@H]2c3[nH]c4ccccc4c3C[C@H]3C(=O)N(CCCCCCC(=O)NO)CC(=O)N23)s1 = 76.6

growth measured on COc1ccc(/C=N/NC(=O)c2c(N)nn(C)c2Nc2ccccc2)cc1 = 38.1

growth measured on CCCNNC(=O)c1ccc(-c2ccc(NC(=O)CCCCCCC(=O)N[C@H](C(=O)N3C[C@H](O)C[C@H]3C(=O)N[C@@H](C)c3ccc(-c4scnc4C)cc3)C(C)(C)C)cc2)cc1 = 30.3

growth measured on O=S(=O)(NCCCNc1nccc(-c2[nH]c(-c3ccccc3)nc2-c2ccc(F)c(O)c2)n1)c1cccc2ccccc12 = 40.7
